Measured solubility kinetic, listed per entry.
test conditions: buffer; pH 7.4; 200.0 µM

CCC(=O)NCCc1nc2cc(NC(=O)c3cccs3)ccc2n1C
> 53.5 µg/mL
Cc1cc2c(SCC(=O)NCC3CCCO3)ncnc2s1 (configuration not stated)
> 48.5 µg/mL
CCS(=O)(=O)N1CCc2nc(-c3ccccc3)sc2C1
> 46.3 µg/mL

Enquiry: Record request: solubility kinetic value, item COc1cc(C(=O)Nc2ccc(C)cn2)c([N+](=O)[O-])cc1OC
Return: > 47.6 µg/mL

Enquiry: Which value of solubility kinetic has been reported for O=C(O)Cn1c(=O)c2c(c3ccccc31)CCC2 in the records?
Return: > 36.5 µg/mL

Enquiry: Quick one: solubility kinetic for Cc1ccc(N2C(=O)[C@@H]3C(c4cccnc4)=NO[C@@H]3C2=O)cc1 ?
Return: > 46.1 µg/mL

Enquiry: For the molecule shown here, N#CC(C#N)=C/C=C(\Nc1ccc(Cl)cc1)c1ccc(Cl)cc1 , give the reported solubility kinetic.
Return: > 51 µg/mL

* * *

test conditions: buffer; pH 7.4; 200.0 µM
Listed here are compounds together with their documented solubility kinetic.

Worked examples, 3 compounds total:
Cc1csc(SCC(=O)NC(=O)C2CCCCC2)n1
> 44.8 µg/mL
CCC/C(O)=C1\C(=O)CC(C)(C)CC1=NCc1ccccc1
> 44.9 µg/mL
CCOC(=O)c1sc(NC(=O)c2ccccc2OCC)nc1C
< 0.4 µg/mL

Enquiry: What value of solubility kinetic has been recorded for this entry: O=C(c1ccco1)N1CCN(S(=O)(=O)c2cccc(Cl)c2)CC1
Return: > 53.2 µg/mL

Enquiry: Given the compound O=C(O)CN(CCc1ccccc1)S(=O)(=O)c1ccccc1 , what is its reported solubility kinetic?
Return: > 47.9 µg/mL

* * *

test conditions: buffer; pH 7.4; 200.0 µM
measured metric: log10 solubility kinetic (log10 of the value in µg/mL)
Give log10 of solubility kinetic, with solubility kinetic taken in µg/mL.

Some entries whose results are on file:
Cc1ccc(CN2CCN(Cc3ccncc3)CC2CCO)o1 (stereo not drawn)
1.54
Cc1ccc(NC(=O)CCc2nc3ccccc3[nH]2)cc1C
-0.52
CCCCOC(=O)N1CCOCCOCCOCC1
1.60

Now consider a different compound.
Enquiry: Please give the measured log10 solubility kinetic for this compound: O=C(CCN1C(=O)c2ccncc2C1=O)Nc1cc(F)ccc1F
Return: 1.62

* * *

Listing: solubility kinetic of selected molecules
test conditions: buffer; pH 7.4; 200.0 µM

Illustrative cases are given below, each with its answer.
Cc1ccc(OCC(=O)N2CCc3ccccc3C2)cc1
> 42.2 µg/mL
Cc1[nH]c(=O)[nH]c(=O)c1N1CCOCC1
> 31.7 µg/mL
Cc1ccc(F)cc1NC(=O)C1C2CCC(O2)C1C(=O)O (centres undefined)
> 44 µg/mL
COc1ccccc1N1CCN(C(=O)c2ccc(Br)o2)CC1
> 54.8 µg/mL
Cc1ccc2c(c1)C(c1ccccc1)N(C(=O)CC(C)C)CC(=O)N2 (centres undefined)
> 50.5 µg/mL

Enquiry: Dear colleague, I am looking for the recorded solubility kinetic of the following molecule: CCOC(=O)CN1C(=O)CCSc2ccc(Cl)cc21
Return: > 45 µg/mL

Enquiry: Dear colleague, I am looking for the recorded solubility kinetic of the following molecule: COc1ccc2c(c1OC)C(=O)N(c1cccc(/C=C/C(=O)O)c1)C2
Return: > 50.9 µg/mL

Enquiry: Data request, read-out solubility kinetic, for S=c1[nH]c2ccccc2n2c(=S)[nH]nc12
Return: > 35.1 µg/mL

Enquiry: Any idea what solubility kinetic was measured for COc1ccccc1CNC(=O)COc1cccnc1[N+](=O)[O-] ?
Return: > 47.6 µg/mL

* * *

test conditions: buffer; pH 7.4; 200.0 µM
Collected solubility kinetic values appear next to each entry.
Just the number please, in µg/mL, no unit attached.

# count of solved cases: 3
Cc1cc(C)nc(NC(=S)Nc2ccccc2)n1
0.3
CSc1cccc(N2CC(C(=O)N3CCN(S(=O)(=O)c4ccccc4Cl)CC3)CC2=O)c1 (centres undefined)
23.2
CNC(=S)N(CCCn1ccnc1)Cc1c(F)cccc1Cl
49

Enquiry: Which measured solubility kinetic value corresponds to COc1cc(OC)c(C(=O)OCC(=O)c2ccc3c(c2)NC(=O)CO3)cc1OC ?
Return: 4.9

* * *

test conditions: buffer; pH 7.4; 200.0 µM
Recorded solubility kinetic for the following molecules

Some molecules with recorded solubility kinetic:
N#Cc1ccccc1CSc1ncccc1C(=O)O
> 40.5 µg/mL
O=C(NCC(=O)N1CCOCC1)c1ccccc1
> 37.2 µg/mL

Read the next record carefully.
Enquiry: Which solubility kinetic is listed for C=CC[n+]1ccc(/C=C2\C=Cc3cc(C)ccc3N2CC)c2ccccc21.[Br-] ?
Return: > 53 µg/mL

* * *

test conditions: buffer; pH 7.4; 200.0 µM
measured metric: solubility kinetic

Nc1nc(-c2ccc(F)cc2)cs1
> 29.1 µg/mL
CCCCOP(=O)(c1ccc(N(C)C)cc1)C(O)c1ccc(N(C)C)cc1 (centres undefined)
> 58.6 µg/mL
O=C(CSc1ccccc1C(=O)O)Nc1ccc2c(c1)OCO2
> 49.7 µg/mL

Enquiry: Which solubility kinetic value is on record for CN(C)C(CNC(=O)c1cc(S(=O)(=O)N2CCOCC2)ccc1F)c1cccs1 (centres undefined) ?
Return: > 66.2 µg/mL

* * *

The entries below are paired with their reported solubility kinetic.
test conditions: buffer; pH 7.4; 200.0 µM

Below: 4 compounds and their reported solubility kinetic.
Cc1cccnc1NC(N)=S
> 25.1 µg/mL
NC(=O)COC(=O)c1ccccc1OCc1ccccc1
> 42.8 µg/mL
COC(=O)c1cc(C(=O)CC(C)C)c[nH]1
> 31.4 µg/mL
CC(=O)c1cccc(NC(=O)C(NC(C)C)c2ccccc2)c1 (stereo not given)
> 46.6 µg/mL

Enquiry: // solubility kinetic lookup, key: CCC(C)[C@H](NC(=O)Nc1ccc2c(c1)OCCO2)C(=O)OC (stereo not given in full)
Return: > 48.4 µg/mL

Enquiry: Quick check: solubility kinetic of CCCCn1nc(CC(=O)NCCN(CC)CC)c2ccccc2c1=O ?
Return: > 53.8 µg/mL

Enquiry: # solubility kinetic lookup, item Cn1c(SCC(=O)O)nc2sc3c(c2c1=O)CCC3
Return: > 44.5 µg/mL

Enquiry: What value of measured solubility kinetic is listed for O=C(COC(=O)Cc1cccc(F)c1)NC(=O)NC1CCCCC1 ?
Return: > 50.5 µg/mL

Enquiry: Could you tell me which solubility kinetic is on file for CCN(Cc1ccncc1)C(=O)c1ccc(Br)o1 ?
Return: > 46.4 µg/mL

Enquiry: Given the entry O=C(CC1(CC(=O)N2CCOCC2)CCCC1)Nc1ccccc1 , report its measured solubility kinetic.
Return: > 49.6 µg/mL

* * *

molecules and their reported solubility kinetic
test conditions: buffer; pH 7.4; 200.0 µM
Response body: numeric value in µg/mL, unit text excluded.

CC1CCC(NC(=O)c2ccc3c(c2)OCO3)CC1 (stereo not drawn)
10.4
O=C(Nc1ccccc1-c1ccccc1)c1ccccc1Br
33.7
COc1ccc(S(=O)(=O)NC2CCCCCC2)c(OC)c1
9.4
O=C(NCc1ccccc1Cl)NCc1ccccc1Cl
1.1
O=C1CN(C(=O)COC(=O)CCC(=O)c2ccc(Cl)cc2)c2ccccc2N1
57.2

Enquiry: If you can, please state the reported solubility kinetic value of C#CC(C)(CC)NC(=O)c1cc2cccc(CC=C)c2oc1=O (stereo not drawn) .
Return: 0.8

Enquiry: Given the molecule Cc1cccc(NC(=O)c2ccco2)c1C , what is its reported solubility kinetic?
Return: 31.8

Enquiry: Which solubility kinetic value belongs to Cc1ccc(C(=O)NC(C)C2CC3CCC2C3)c(C)c1 (stereo not drawn) ?
Return: 29.9

* * *

test conditions: buffer; pH 7.4; 200.0 µM
Collected solubility kinetic values appear next to each entry.

Some solved entries appear below for comparison.
CNC(=O)c1cc(S(=O)(=O)NCc2ccncc2)ccc1OC
> 50.3 µg/mL
COc1cccc2c3c(c(=O)[nH]c12)CC(C)(C)O3
> 36.8 µg/mL
COc1ccc(NC(C)=O)cc1S(=O)(=O)Nc1ccc(S(=O)(=O)N2CCCCC2)cc1
> 70.1 µg/mL
Cc1noc(C)c1COc1cccc(C(=O)NC(C)(C)C)c1
> 45.4 µg/mL

Attention now shifts to the item below.
Enquiry: Field request: solubility kinetic | item: Cl.Nc1ccc(-c2nc3c(ccc4ccccc43)[nH]2)cc1
Return: > 44.4 µg/mL

* * *

Catalogue of solubility kinetic values
test conditions: buffer; pH 7.4; 200.0 µM

Example entries and their recorded answers appear below.
Cc1cc(NC(=O)CSCC(=O)NC(C)c2ccccc2)no1 (stereo unspecified)
> 50 µg/mL
O=C(Cc1ccccc1)NNC(=S)NC(=O)c1cccnc1
> 47.2 µg/mL
O=C(CN1C(=O)NC2(CCc3ccccc32)C1=O)Nc1ccccc1Cl (stereo unspecified)
> 55.5 µg/mL

Enquiry: I am curious: what solubility kinetic value has been reported for CCOc1ccc(N2C(=O)NC(=O)/C(=C\c3ccccc3[N+](=O)[O-])C2=O)cc1 ?
Return: > 57.2 µg/mL

Enquiry: State the recorded solubility kinetic for this entry: CN1CCC(N(C)S(=O)(=O)c2ccc(F)cc2F)CC1
Return: > 45.7 µg/mL

Enquiry: Entry under review: COC(=O)[C@@H](NC(=O)N1CCC(Cc2ccccc2)CC1)C(C)C . Reported solubility kinetic?
Return: > 49.9 µg/mL

Enquiry: Please give the measured solubility kinetic for this compound: O=C(c1ccc(NS(=O)(=O)c2ccccc2)cc1)N1CCOCC1
Return: > 52 µg/mL

Enquiry: # solubility kinetic lookup, item O=C(CSCc1ccc(Br)cc1)N1CCCC1
Return: > 47.1 µg/mL

Enquiry: Please look up its solubility kinetic: COc1ccccc1NCCC(=O)OCC(=O)Nc1ccccc1Cl
Return: > 54.4 µg/mL

Enquiry: Need solubility kinetic of CC(C)c1ccccc1-n1cc[nH]c1=S , thanks.
Return: > 32.7 µg/mL

Enquiry: Find the recorded solubility kinetic belonging to CC(=O)N1CCN(C(=O)c2ccc(Cl)c(S(=O)(=O)N3CCCC3)c2)CC1 and report it.
Return: > 60 µg/mL

Enquiry: Would you kindly share the measured solubility kinetic for Cc1ccc(SCCOCCN2CCOCC2)cc1.Cl ?
Return: > 47.7 µg/mL

Enquiry: State the recorded solubility kinetic for this entry: Cc1cc(NS(=O)(=O)c2ccc(NC(=O)c3ccc([N+](=O)[O-])s3)cc2)nc(C)n1
Return: > 65 µg/mL
